system: LOX IMVI melanoma; experiment: NCI tumour cell line growth inhibition, 48 h; in the data active = GI50 below about 0.43 µM; inactive = the rest
Hi there, use one of these labels in your reply, thanks! class 1 for active, class 0 for inactive

{"compound": "N#Cc1c(-c2ccccc2)cc(-c2ccccc2)n(CCCCC(=O)NO)c1=O", "testedOn": "LOX IMVI melanoma", "class": "class 0"}
{"compound": "O=C(c1cccs1)c1c(C(F)(F)F)n([O-])c2ccc(F)cc2[n+]1=O", "testedOn": "LOX IMVI melanoma", "class": "class 0"}
{"compound": "C/C(=C\\CCc1ccoc1)CC/C=C(\\C)CCCN1CCC(CO)CC1", "testedOn": "LOX IMVI melanoma", "class": "class 0"}
{"compound": "COc1cc(C2CC(c3cc(C)ccc3C)=NN2c2ccc(S(=O)(=O)NC(=O)NCc3ccccc3)cc2)cc(OC)c1OC (stereo not given)", "testedOn": "LOX IMVI melanoma", "class": "class 0"}

In the following, a different compound is considered.
Tell me the recorded outcome of this test for Cc1cc(-c2nc(-c3ccc(OC(F)(F)F)cc3)no2)nn1Cc1ccnc(N2CCN(C3CC3)CC2)c1 .
class 1

###

Reported values of GI50 for individual entries
system: SK-MEL-28 melanoma; experiment: NCI tumour cell line growth inhibition, 48 h

Worked examples, 3 molecules total:
{"molecule": "C=C1CCC2C3(C)COC(c4ccc(SC)cc4)OC3CCC2(C)C1C/C=C1/C(=O)OCC1O (centres undefined)", "GI50": "8670 nM"}
{"molecule": "COC(=O)[C@@]1(C)CC[C@]2(C)CC[C@]3(C)C4=CC=C5C(=CC(=O)C(O)=C5C)[C@]4(C)CC[C@@]3(C)[C@@H]2C1", "GI50": "244 nM"}
{"molecule": "COC(=O)[C@H](CC(C)C)NC(=O)NC(=O)NC(=O)CI", "GI50": "5640 nM"}

Param item: CC1OC(OC2CC(O)C3(CO)C4C(O)CC5(C)C(C6=CC(=O)OC6)CCC5(O)C4CCC3(O)C2)C(O)C(O)C1O (centres undefined) ; param system: SK-MEL-28 melanoma; output GI50: 64.6 nM

###

tested on: SNB-75 CNS; experiment: NCI tumour cell line growth inhibition, 48 h; in the data active = GI50 below about 0.43 µM; inactive = the rest
Hi there, use one of these labels in your reply, thanks! active, inactive

{"molecule": "COc1cc2c3c(n(C)c(=O)c2cc1OC)-c1cc2c(cc1/C3=C\\CCCBr)OCO2", "class": "active"}
{"molecule": "C#COc1cccc(Nc2ncnc3ncc(NC(=O)CCl)cc23)c1", "class": "inactive"}
{"molecule": "CC1=C(/C=C/C(C)=C/C=C/C(C)=C/C(=O)Nc2ccc(O)cc2)C(C)(C)CCC1", "class": "inactive"}
{"molecule": "COc1cc(C2CC(c3cc(C)ccc3C)=NN2c2ccc(S(=O)(=O)NC(=O)NCc3ccccc3)cc2)cc(OC)c1OC (stereo not given)", "class": "inactive"}
{"molecule": "N#Cc1c(NC(=O)CN2CCOCC2)sc2c1CCCC2", "class": "inactive"}

What call does the record list for O=C1/C(=C/c2ccccc2)CCC/C1=C\c1ccccc1 ?
inactive

Any idea what this test logged for CN(C)CCCNc1nccc(-c2c(-c3ccc(F)cc3)nn3cc(C(F)(F)F)ccc23)n1 ?
inactive

Tell me the recorded outcome of this test for O=C1c2ccccc2-c2c1c1ccccc1c(=O)n2CCCN1CCN(CCCn2c3c(c4ccccc4c2=O)C(=O)c2ccccc2-3)CC1 .
inactive

Fill in: this test's call for COc1ccc(Cc2cnc(NC(=O)c3sc4ccccc4c3Cl)s2)cc1 is ___
active

Each molecule tested received a call. Report the one for C=C1CCC2C3(C)COC(c4ccc(SC)cc4)OC3CCC2(C)C1C/C=C1/C(=O)OCC1O (stereo not given) .
inactive

###

The following compounds are listed with their measured TGI values.
test system: MDA-MB-231 breast; assay: NCI tumour cell line growth inhibition, 48 h

Some compounds with known TGI results, for comparison:
{"compound": "CC1C/C(=N\\N(C)C)C(C#N)(C#N)C1(C#N)C#N (stereo not given)", "TGI": "1.32 µM"}
{"compound": "NC(=O)C(NC=O)c1ccccc1 (stereo not given)", "TGI": "> 100 µM"}
{"compound": "CC(C)CC(=O)NC(NC(C)C)(C(F)(F)F)C(F)(F)F", "TGI": "> 100 µM"}
{"compound": "O=C1/C(=C\\c2coc3ccccc3c2=O)c2ccccc2N1c1c(Cl)cccc1Cl", "TGI": "> 100 µM"}
{"compound": "COc1ccc(N2C(=O)/C(=C\\c3cccc(Oc4ccccc4)c3)S(=O)(=O)C2c2ccccc2)cc1 (stereo not given)", "TGI": "> 100 µM"}

Per the record, COC(=O)[C@H](CC(C)C)NC(=O)NC(=O)NC(=O)CI has TGI of 25.8 µM

So, O=C(c1cccs1)c1c(C(F)(F)F)n([O-])c2ccc(F)cc2[n+]1=O ? Its TGI was 3.1 µM

TGI reading for CCOC(=O)C1=C(C)NC2SC(=O)/C(=C\c3ccccc3)N2C1c1ccccc1 (stereo not given) : > 100 µM

// sample C=C1CC(Cn2cc(C)c(=O)[nH]c2=O)(c2ccc(-c3ccccc3)cc2)OC1=O (stereo not given) , its TGI was 5.16 µM

// recorded TGI for CCOC(=O)c1cc(C2CCN(Cc3ccccc3)C2=O)c(C(=O)C(=[N+]=[N-])C(C)=O)[nH]1 (stereo not given) : > 100 µM

// CCN(CC)C(=S)SC1CCOP(=O)(N(CCCl)CCCl)N1C (stereo not given) : TGI value = > 100 µM

TGI reading for COc1cc(C(N)=O)cc(NC(=O)/C=C/c2ccccc2)c1OC : > 100 µM

In plain terms, COC(=O)c1ccc([N+](=O)[O-])c(O)c1 has a documented TGI of > 100 µM

Recorded result, O=C(/C=C(\Nc1ccccc1O)c1ccccc1)C(=O)NC12CC3CC(CC(C3)C1)C2 , TGI: > 10 µM

The reported value for COc1ccc(Cc2cnc(NC(=O)c3sc4ccccc4c3Cl)s2)cc1 in terms of TGI is > 100 µM

Recorded TGI (compound Nc1ccccc1NC(=O)c1ccc(CN2CCC/C(=C\c3cccc(Cl)c3)C2=O)cc1 ): 7.93 µM

Lab note: O=C1c2ccccc2-c2c1c1ccccc1c(=O)n2CCCN1CCN(CCCn2c3c(c4ccccc4c2=O)C(=O)c2ccccc2-3)CC1 gave TGI of 27.4 µM

The reported value for CC(=O)OC[C@]12CC[C@@H]([C@@H](C)C(N)=O)[C@@H]1[C@H]1CC[C@@H]3[C@@]4(C)CC[C@H](OC(C)=O)C(C)(C)[C@@H]4CC[C@@]3(C)[C@]1(C)CC2 in terms of TGI is 30.8 µM

Form field TGI, entry COP1(=O)NCc2ncccc2O1 (stereo not given) : > 100 µM

Sure, the documented TGI for O=c1cc(CC(O)(C(F)(F)Cl)C(F)(F)Cl)[nH]n1-c1ccccc1 is > 100 µM

###

system: SNB-78 CNS; experiment: NCI tumour cell line growth inhibition, 48 h
Where a SMILES comes first, the peptide text is derived from it. [ ]: non-standard residue; d: D form. The star is where a group is joined. ξ: configuration not given here. NMeF = CN[C@@H](Cc1ccccc1)C(=O)O; ξNMeV = CNC(C(=O)O)C(C)C; Boc = CC(C)(C)OC(=O)*; OBn = c1ccc(CO*)cc1
reportedProperty: TGI

{"compound": "O=C1/C(=C/c2ccccc2)CCC/C1=C\\c1ccccc1", "TGI": "> 87.9 µM"}
{"compound": "CC(C)C(C(=O)N1CCC[C@@H]1C(=O)OCc1ccccc1)N(C)C(=O)C(C(C)C)N(C)C(=O)[C@H](Cc1ccccc1)N(C)C(=O)[C@H](NC(=O)OC(C)(C)C)C(C)C (some centres undefined) (Boc-[dV][NMeF][ξNMeV][ξNMeV][dP]-OBn)", "TGI": "> 100 µM"}
{"compound": "C=C1Oc2nc3ccccc3c(=O)n2C1(C)C", "TGI": "> 100 µM"}

Field TGI (entry CC1(C)CCc2cc3c(-c4ccccc4)cc(=O)oc3cc2O1 ) reads > 100 µM

Reported TGI ( O=C1C2CCC(C2)C12CC1(c3ccccc3)C(=O)c3ccccc3N1O2 (centres undefined) ) = > 100 µM

For record C=C(CS(=O)(=O)c1ccccc1)[P+](c1ccccc1)(c1ccccc1)c1ccccc1 the listed TGI is > 100 µM

Briefly, TGI measured for CCC[CH2][Sn]([CH2]CCC)([O]C(=O)c1nccnc1N)[O]C(=O)c1nccnc1N : 1.57 µM

Measured TGI of COc1cc2cc[n+]3c4cc(OC)c(OC)cc4c(C)cc3c2cc1OC : > 100 µM

Memo: CC(C)c1cccc(C(C)C)c1NC(=O)C(=O)C(C(=O)c1ccc2ccccc2c1)C1OC(=O)c2ccccc21 (centres undefined) , reported TGI: > 100 µM
